Structures can show the parent of a compound that is named as a salt.

Compound	melting point
Cc1nnc(SCC2=C(C(=O)O)N3C(=O)[C@@H](NC(=O)Cn4cnnn4)[C@H]3SC2)s1 [cefazolin]	190 °C
CCC1(c2ccccc2)C(=O)NC(=O)NC1=O [phenobarbital]	175 °C
Cc1ccnc(NS(=O)(=O)c2ccc(N)cc2)n1 [sulfamerazine]	236 °C
CCCCCCCCCCCCCCCCCCCC(=O)OC [methyl eicosanoate]	48 °C
CC(C)(N)CO [2-Amino-2-methylpropan-1-ol]	30 °C
CCCCC(=O)c1ccccc1 [valerophenone]	-9 °C
CC12CCC(=O)CC1CCC1C2CCC2(C)C(OC=O)CCC12 (stereo not given) [3-oxoandrostan-17-yl formate]	125 °C
O=Cc1ccco1 [2-Furaldehyde]	-36 °C
COc1ccc(N)cc1 [p-anisidine]	58 °C
O=c1[nH]c2ccccc2n1C1CCN(CCCC(c2ccc(F)cc2)c2ccc(F)cc2)CC1 [pimozide]	216 °C
COc1ccc(C=O)cc1 [4-methoxybenzaldehyde]	1 °C
CC(=O)OCCC(C)C [isoamyl_acetate]	-78 °C
Cc1cc(C)cc([N+](=O)[O-])c1 [5-nitro-1,3-dimethylbenzene]	74 °C
CCCCCCCCCC [N-decane]	-30 °C
Nc1ncnc2c1ncn2[C@@H]1O[C@H](COP(=O)(O)O)[C@@H](O)[C@H]1O [Adenosine monophosphate]	186 °C
COc1cc(OC)c(C=O)c(OC)c1 [2,4,6-trimethoxybenzaldehyde]	120 °C
CCOC(=O)c1ccccc1C(=O)OCC [Diethyl phthalate]	-3 °C
CN(C)c1ccc(/C=C/C=O)cc1 [4-dimethylamino cinnamaldehyde]	136 °C
[O-]/[N+](=N\c1ccccc1)c1ccc(/N=N/c2ccccc2)cc1 [(E)-1-phenyl-2-{4-[(Z)-phenyl-NNO-azoxy]phenyl}diazene]	131 °C
ON=C(/C(=N\O)c1ccco1)c1ccco1 [2,2'-furil dioxime]	165 °C

====

Binary call on melting point: yes from 40 °C upward, no beneath that.

Compound	Assigned Label
O=[N+]([O-])c1ccc(O)cc1 [p-nitrophenol]	yes
O=C1CN(/N=C/c2ccc([N+](=O)[O-])o2)C(=O)N1	yes
c1cc2c3c(cccc3c1)CC2	yes
Oc1ccc(I)cc1	yes
O=Cc1ccc(Cl)c(Cl)c1	yes
CCOCCOC(C)=O [2-ethoxyethyl_acetate]	no
CCCC(C)(CO)CO	yes
CCOC(=O)/C=C\C(=O)OCC [Diethyl (2Z)-but-2-enedioate]	no
C/C(=N\Nc1cccc2cccnc12)c1cccs1 [8-{(2E)-2-[1-(2-Thienyl)ethylidene]hydrazino}quinoline]	yes
c1ccc(COCc2ccccc2)cc1	no
CC(O)C(C)O (stereo unspecified) [2,3-butanediol]	no
CCCCCc1ccc(B(O)O)cc1	yes
Cc1c(C)c(C)c(C)c(C)c1C	yes
Cn1ncc(Br)c1N	yes
O=C(c1c(F)c(F)c(F)c(F)c1F)c1c(F)c(F)c(F)c(F)c1F	yes
N#Cc1ccc(I)cc1	yes
CCOC=C(C#N)C(=O)OCC [ethyl (ethoxymethylene)cyanoacetate]	yes
CC(Br)CCCBr (stereo unspecified)	no
CC(=O)Cl [Acetyl chloride]	no
OC[C@@H]1OC(O)[C@@H](O)[C@H]1O (stereo partly specified)	yes
O=[N+]([O-])O[C@H]1CO[C@H]2[C@@H]1OC[C@H]2O[N+](=O)[O-] [isosorbide dinitrate]	yes

====

Property Measured: melting point (°C)

Smiles Input	Unit Abbrev	Endpoint Value
NCCCCNCCCN	°C	24
CCc1ccc2c(c1)C(=O)c1ccccc1C2=O	°C	109
CC(C)(C)OC(=O)N1CCC[C@@H]1C(=O)O	°C	134
O=Cc1ccc(OCC(=O)O)cc1	°C	196
c1ccc(P(C2CCCCC2)C2CCCCC2)cc1	°C	60

====

Some compounds, each annotated with its measured melting point.

Compound	Unit Abbrev	melting point
O=C(O)c1cc(B(O)O)ccc1F [3-carboxy-4-fluorobenzeneboronic acid]	°C	218
ClCc1ccc(Cl)cc1Cl [2,4-dichlorobenzyl chloride]	°C	-3
CCC(C)C1(CC)C(=O)NC(=O)NC1=O (stereo not drawn) [butabarbital]	°C	166
CC(C)[C@@H](C)/C=C/[C@@H](C)[C@H]1CC[C@H]2C3=CC=C4C[C@@H](O)CC[C@]4(C)[C@H]3CC[C@]12C [(3beta,22E)-Ergosta-5,7,22-trien-3-ol]	°C	160
O=C(O)c1cnccc1C(F)(F)F [4-(trifluoromethyl)nicotinic acid]	°C	148
N#CC(=CN(O)c1ccccc1)c1ccccc1 [3-[hydroxy(phenyl)amino]-2-phenylprop-2-enenitrile]	°C	155
CCOC(=O)c1ccc(O)cc1 [ethyl 4-hydroxybenzoate]	°C	117
Cn1cnc2c1c(=O)[nH]c(=O)n2C [theobromine]	°C	348

====

Compound	melting point
Cc1ccc2c(c1)-c1c(cc3c(c1-c1ccccc1)C(=O)CC(C)(C)C3)CO2	199 °C
CCC1(CC)C(=O)NC(=O)NC1=O [Barbital]	190 °C
OCc1ccc(Cl)cc1 [(4-Chlorophenyl)methanol]	71 °C
O=C(O)CCC(=O)c1ccc(Br)cc1 [3-(4-bromobenzoyl)propionic acid]	147 °C
N#Cc1cccc(O)c1 [3-hydroxybenzonitrile]	80 °C
CC(=O)c1cccc(Br)c1 [3'-bromoacetophenone]	8 °C
Cc1cc(C(=O)O)ccc1Cl [4-chloro-3-methylbenzoic acid]	214 °C
OB(O)c1ccc(OCc2ccccc2)cc1 [4-benzyloxybenzeneboronic acid]	196 °C
Brc1ccc(Br)c(Br)c1 [1,2,4-Tribromobenzene]	44 °C
CS [Methanethiol]	-121 °C
[2H]C([2H])([2H])C([2H])([2H])C([2H])([2H])C([2H])([2H])C([2H])([2H])C([2H])([2H])C([2H])([2H])C([2H])([2H])C([2H])([2H])C([2H])([2H])[2H] [(~2~H_22_)Decane]	-30 °C
CCc1ccc(OCC(=O)O)cc1 [4-ethylphenoxyacetic acid]	93 °C
CC[C@H](C)C(=O)O[C@H]1C[C@@H](C)C=C2C=C[C@H](C)[C@H](CC[C@@H]3C[C@@H](O)CC(=O)O3)[C@H]21 [Lovastatin]	174 °C
C=Cc1ccc(C(=O)O)cc1 [4-vinylbenzoic acid]	142 °C
COc1cc2c(c(OC)c1OC)-c1ccc(OC)c(=O)cc1[C@@H](NC(C)=O)CC2 [colchicine]	146 °C
Cc1c(N(C)C)c(=O)n(-c2ccccc2)n1C [Aminopyrine]	108 °C
O=C1CCC(N2C(=O)c3ccccc3C2=O)C(=O)N1 (centres undefined) [Thalidomide]	275 °C
C/C(C)=CC=C(/C)C [2,5-dimethyl-2,4-hexadiene]	13 °C
CCCCC1C(=O)N(c2ccccc2)N(c2ccccc2)C1=O [Phenylbutazone]	107 °C

====

melting point for assorted compounds
Property Measured: melting point (°C)

Compound	Unit Abbrev	Endpoint Value
Clc1cc(Cl)cc(I)c1	°C	57
O=C(O)c1cc(-c2ccc(F)cc2F)ccc1O [Diflunisal]	°C	216
O=C(O)C(F)(F)C(F)(F)C(F)(F)C(F)(F)C(F)(F)C(F)(F)C(F)(F)C(F)(F)C(F)(F)F	°C	78
CC(=O)c1ccc(C)c([N+](=O)[O-])c1	°C	60
CS(N)(=O)=O [methanesulfonamide]	°C	90

====

Property Measured: melting point (°C)

Compound	Endpoint Value
CCCCBr	-112
O=C(O)CO	80
Nc1cccc2cnccc12	129
O=C(O)CCS	18
O/N=C(/C=C/c1ccccc1)c1ccccc1 [2-Propen-1-one, 1,3-diphenyl-, oxime, (E,Z)-]	116
C[Si](C)(C)c1c2c(cc3c1-c1ccccc1OC3)CCCC2=O	159
CCCCNc1cc(C(=O)O)cc(S(N)(=O)=O)c1Oc1ccccc1 [Bumetanide]	230
COC(=O)c1ccc(OC)c(C#N)c1 [methyl 3-cyano-4-methoxybenzoate]	122
O=C\1\C=C5/[C@@](/C=C/1)(C)[C@]2(F)[C@H]([C@H]3[C@](C[C@@H]2O)([C@@]4(OC(O[C@@H]4C3)(C)C)C(=O)CO)C)CC5 [triamcinolone acetonide]	293
CC1=CCCCC1	-120
C=C1N(C)c2ccccc2C1(C)C	-10
CC12CCC3C(CCC4CC(=O)CCC43C)C1CCC2=O (centres undefined)	132
CN1C(C(=O)Nc2ccccn2)=C(O)c2ccccc2S1(=O)=O	198
Fc1ccc(C2(Cn3cncn3)OC2c2ccccc2Cl)cc1 (centres undefined)	125
O=C(CBr)c1ccc2ccccc2c1	83
COc1cc(C=O)c([N+](=O)[O-])cc1OC	133
CN[C@@H](C)[C@H](O)c1ccccc1 [ephedrine]	34
O=[N+]([O-])c1ccc(Cc2ccccn2)c([N+](=O)[O-])c1	92
C[C@H](CCC(=O)O)[C@H]1CC[C@H]2[C@@H]3[C@H](O)C[C@@H]4C[C@H](O)CC[C@]4(C)[C@H]3C[C@H](O)[C@]12C	201

====

# class assignment by measured melting point: bin 0 (below 100 °C), bin 1 (100 °C to below 200 °C), bin 2 (200 °C or more)

Compound	Assigned Label
Cc1ncc(CO)c(CO)c1O	bin 1
OB(O)c1cc(Cl)cc(Cl)c1Cl	bin 2
OB(O)c1ccc2ccccc2c1	bin 2
Cc1cnc(NC(=O)C2=C(O)c3ccccc3S(=O)(=O)N2C)s1	bin 2
Nc1nc2c(ncn2COCCO)c(=O)[nH]1	bin 2
CC(=O)CCC(C)=O	bin 0
O=C1OC(c2ccccc2)(c2ccccc2)C=C1O [3-hydroxy-5,5-diphenylfuran-2(5H)-one]	bin 1
O=[N+]([O-])c1ccco1	bin 0
N#CCc1ccccc1O [o-hydroxy_phenylacetonitrile]	bin 1
COc1cc(C(=O)NN)ccc1O [vanillic acid hydrazide]	bin 2
COc1ccccc1C=O	bin 0
ClCCOc1ccccc1	bin 0
c1ccc2c(c1)Cc1ccccc1-2	bin 1
COc1cc(B(O)O)ccc1C	bin 1
CCCCCCCCCCCC(C)=O	bin 0
COC(=O)c1cccc(N)c1 [methyl 3-aminobenzoate]	bin 0
Nc1ccc(N=Nc2ccccc2)cc1	bin 1
O=Cc1cccc(O)c1O [2,3-dihydroxybenzaldehyde]	bin 1
C=CCC1(CC(C)C)C(=O)NC(=O)NC1=O [butalbital]	bin 1
CCOC(=O)Cn1cnc2ncnc(Cl)c21 [Ethyl (6-chloro-7H-purin-7-yl)acetate]	bin 1
